- assayed_target: UniProt:P47898
- Sequence (P47898 whole entry): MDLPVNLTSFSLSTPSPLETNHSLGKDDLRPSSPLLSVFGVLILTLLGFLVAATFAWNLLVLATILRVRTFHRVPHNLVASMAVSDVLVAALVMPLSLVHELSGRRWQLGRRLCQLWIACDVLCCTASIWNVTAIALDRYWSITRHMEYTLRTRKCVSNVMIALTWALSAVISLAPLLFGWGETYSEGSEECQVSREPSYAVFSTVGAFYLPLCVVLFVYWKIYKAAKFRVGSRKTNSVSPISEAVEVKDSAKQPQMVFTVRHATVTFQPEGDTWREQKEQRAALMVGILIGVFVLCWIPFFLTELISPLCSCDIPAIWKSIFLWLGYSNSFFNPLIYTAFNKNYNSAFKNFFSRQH
- assay_details: [3H]-LSD radioligand binding assay, 5-HT5A
readout: Ki (µM)
State just the number; it will be interpreted in µM.

Exam item: Given CC1NC(NS(=O)(=O)c2cccc3ccccc23)=Nc2cccc(Cl)c21 (stereo not shown) [PR 68] , state its recorded Ki.
Marked response: 1.11

====

- assay_details: Affinity to phospholipids, IAM column (CHI IAM)
- Format: physicochemical
- run_parameters: IAM.PC.DD2 column, pH 7.4
This section presents compounds with their documented CHI IAM values.
Response field accepts a number only; no unit should be typed.

Sample records with CHI IAM:
{"columns": ["compound", "meas_value"],
 "data": [
  ["O=S(=O)(NC1=Nc2cc(Cl)ccc2CN1)c1ccc2ccccc2c1", 44.9],
  ["O=S(=O)(NC1=Nc2ccccc2CN1)c1cccc(Cl)c1", 36.6],
  ["O=S(=O)(NC1=Nc2ccc(Cl)c(Cl)c2CN1)c1cccc2ccccc12", 49.0]
]}

Exam item: Given Nc1nc2ccccc2n1S(=O)(=O)c1csc2ccccc12 , state its recorded CHI IAM.
Marked response: 40.3

Exam item: Given COc1ccc(Cl)cc1S(=O)(=O)NC1=Nc2ccccc2CN1 , state its recorded CHI IAM.
Marked response: 35.3

Exam item: Given O=S(=O)(NC1=Nc2cc(Cl)ccc2CN1)c1cccc2ccccc12 , state its recorded CHI IAM.
Marked response: 44.6

Exam item: Given O=S(=O)(NC1=Nc2cc(F)ccc2CN1)c1cccc2ccccc12 , state its recorded CHI IAM.
Marked response: 40.5

Exam item: Given O=S(=O)(NC1=Nc2ccccc2CN1)c1ccc(F)cc1 , state its recorded CHI IAM.
Marked response: 31.3

Exam item: Given CC1OC(NS(=O)(=O)c2cccc3ccccc23)=Nc2ccccc21 (stereo not shown) , state its recorded CHI IAM.
Marked response: 40.8

Exam item: Given CC1NC(NS(=O)(=O)c2cccc3ccccc23)=Nc2ccc(Br)cc21 (stereo not shown) , state its recorded CHI IAM.
Marked response: 46.3

====

- assay_details: Affinity to phospholipids, IAM column (CHI IAM)
- Format: physicochemical
- run_parameters: IAM.PC.DD2 column, pH 7.4
This section presents molecules with their documented CHI IAM values.
Response field accepts a number only; no unit should be typed.

Sample records with CHI IAM:
{"columns": ["molecule", "CHI IAM"],
 "data": [
  ["CN1CCN2c3ccccc3Cc3ccccc3C2C1 (stereo not drawn) [Mianserin, reference compound]", 44.2],
  ["O=S(=O)(Nc1nc2ccccc2[nH]1)c1cccc2ccccc12", 39.3]
]}

Shifting focus to the molecule that follows.
Exam item: Given O=S(=O)(NC1=Nc2ccccc2CN1)c1ccc(Cl)c(Cl)c1 , state its recorded CHI IAM.
Marked response: 42.0

====

- assayed_target: human 5-HT6 (Homo sapiens)
- Construct: expressed in transfected cells
- Sequence (P50406 whole entry): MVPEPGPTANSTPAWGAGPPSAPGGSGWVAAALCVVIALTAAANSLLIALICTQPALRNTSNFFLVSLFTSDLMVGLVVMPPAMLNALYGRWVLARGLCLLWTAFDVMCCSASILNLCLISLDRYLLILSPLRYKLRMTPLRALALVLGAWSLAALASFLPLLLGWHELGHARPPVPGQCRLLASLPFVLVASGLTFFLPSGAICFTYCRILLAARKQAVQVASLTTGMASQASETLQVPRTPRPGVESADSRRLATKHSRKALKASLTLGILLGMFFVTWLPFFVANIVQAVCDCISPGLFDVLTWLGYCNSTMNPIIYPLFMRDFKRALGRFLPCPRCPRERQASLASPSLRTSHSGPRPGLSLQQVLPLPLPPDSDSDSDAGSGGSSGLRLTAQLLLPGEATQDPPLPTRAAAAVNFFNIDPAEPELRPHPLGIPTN
- assay_details: [3H]-LSD radioligand binding assay, 5-HT6R
- run_parameters: HEK293 expressing human 5-HT6R, read-out: 5-HT6 Ki
readout: Ki (nM)
State just the number; it will be interpreted in nM.

Sample records with Ki:
{"columns": ["molecule", "assayed_target", "unit_annotation", "Ki"],
 "data": [
  ["O=S(=O)(NC1=Nc2c(Cl)cc(Cl)cc2CN1)c1cccc2ccccc12", "human 5-HT6 (Homo sapiens)", "nM", 866],
  ["O=S(=O)(NC1=Nc2ccccc2CN1)c1cc(Cl)cc(Cl)c1", "human 5-HT6 (Homo sapiens)", "nM", 609],
  ["O=S(=O)(NC1=Nc2ccccc2CN1)c1ccccc1Cl", "human 5-HT6 (Homo sapiens)", "nM", 1800]
]}

Exam item: Lab request: please report Ki under test system human 5-HT6 (Homo sapiens) for CC1c2ccccc2N=C(NS(=O)(=O)c2cccc3ccccc23)N1C (centres unmarked)
Marked response: 103

Exam item: Lab request: please report Ki under test system human 5-HT6 (Homo sapiens) for O=S(=O)(NC1=Nc2ccccc2CN1)c1cccc2c(Cl)cccc12
Marked response: 258

Exam item: Lab request: please report Ki under test system human 5-HT6 (Homo sapiens) for CN(C)c1ccc2c(c1)CNC(NS(=O)(=O)c1cccc3ccccc13)=N2
Marked response: 851

Exam item: Lab request: please report Ki under test system human 5-HT6 (Homo sapiens) for CC1NC(NS(=O)(=O)c2ccc3ccccc3c2)=Nc2ccccc21 (centres unmarked)
Marked response: 702

Exam item: Lab request: please report Ki under test system human 5-HT6 (Homo sapiens) for O=S(=O)(NC1=Nc2ccccc2CN1)c1c(Cl)ccc2ccccc12
Marked response: 210
